Assay: PK study in monkey
Format: in vivo
Conditions: monkey plasma NX218 after bolus IV 10 mg/kg NX210; mean
Where a SMILES comes first, the peptide text is derived from it. Bridges are numbered along the chain shown (N, C = ends).
Observed property: Cmax

Q) Answer with reported Cmax of N=C(N)NCCC[C@@H]1NC(=O)[C@H](CO)NC(=O)[C@@H](NC(=O)[C@H](CO)NC(=O)[C@H](CO)NC(=O)[C@H](Cc2c[nH]c3ccccc23)NC(=O)CNC(=O)[C@H](CO)NC(=O)[C@@H](N)Cc2c[nH]c3ccccc23)CSSC[C@@H](C(=O)NCC(=O)O)NC(=O)[C@H](CO)NC1=O [NX218, W-S-G-W-S-S-C-S-R-S-C-G] (H-WSGWSSCSRSCG-OH; disulfide 7-11; N-terminus and C-terminus assumed)
A) 19300 ng/mL

====

Assay: PK study in monkey
Type: in vivo
Settings: monkey plasma NX218 after bolus IV 10 mg/kg NX210; mean
Where a SMILES comes first, the peptide text is derived from it. Bridges are numbered along the chain shown (N, C = ends).
Observed property: AUC(0-inf) (ng·h/mL)
Express it in ng·h/mL; write the number only.

Q) Give a short answer stating reported AUC(0-inf) for N=C(N)NCCC[C@@H]1NC(=O)[C@H](CO)NC(=O)[C@@H](NC(=O)[C@H](CO)NC(=O)[C@H](CO)NC(=O)[C@H](Cc2c[nH]c3ccccc23)NC(=O)CNC(=O)[C@H](CO)NC(=O)[C@@H](N)Cc2c[nH]c3ccccc23)CSSC[C@@H](C(=O)NCC(=O)O)NC(=O)[C@H](CO)NC1=O [NX218, W-S-G-W-S-S-C-S-R-S-C-G] (H-WSGWSSCSRSCG-OH; disulfide 7-11; N-terminus and C-terminus assumed) .
A) 1060

====

Test: PK study in monkey
Format: in vivo
Conditions: monkey, plasma, iv, 10 mg/kg, monkey plasma NX218 after bolus IV 10 mg/kg NX210; mean; read-out: t½
Where a SMILES comes first, the peptide text is derived from it. Bridges are numbered along the chain shown (N, C = ends).
Observed property: half-life (min)
Answer with a number only, understood to be in min.

Q) Read the entry N=C(N)NCCC[C@@H]1NC(=O)[C@H](CO)NC(=O)[C@@H](NC(=O)[C@H](CO)NC(=O)[C@H](CO)NC(=O)[C@H](Cc2c[nH]c3ccccc23)NC(=O)CNC(=O)[C@H](CO)NC(=O)[C@@H](N)Cc2c[nH]c3ccccc23)CSSC[C@@H](C(=O)NCC(=O)O)NC(=O)[C@H](CO)NC1=O [NX218, W-S-G-W-S-S-C-S-R-S-C-G] (H-WSGWSSCSRSCG-OH; disulfide 7-11; N-terminus and C-terminus assumed) and write its reported half-life.
A) 12.7

====

Test: PK study in monkey
Format: in vivo
Details: monkey plasma NX218 after bolus IV 10 mg/kg NX210; mean
Where a SMILES comes first, the peptide text is derived from it. Bridges are numbered along the chain shown (N, C = ends).
Observed property: clearance (mL/min/kg)
Just the number in mL/min/kg, nothing appended.

Q) # return recorded clearance for input N=C(N)NCCC[C@@H]1NC(=O)[C@H](CO)NC(=O)[C@@H](NC(=O)[C@H](CO)NC(=O)[C@H](CO)NC(=O)[C@H](Cc2c[nH]c3ccccc23)NC(=O)CNC(=O)[C@H](CO)NC(=O)[C@@H](N)Cc2c[nH]c3ccccc23)CSSC[C@@H](C(=O)NCC(=O)O)NC(=O)[C@H](CO)NC1=O [NX218, W-S-G-W-S-S-C-S-R-S-C-G] (H-WSGWSSCSRSCG-OH; disulfide 7-11; N-terminus and C-terminus assumed)
A) 190
